target: Histone-lysine N-methyltransferase EZH2 (Homo sapiens)
Sequence (Q15910 whole entry): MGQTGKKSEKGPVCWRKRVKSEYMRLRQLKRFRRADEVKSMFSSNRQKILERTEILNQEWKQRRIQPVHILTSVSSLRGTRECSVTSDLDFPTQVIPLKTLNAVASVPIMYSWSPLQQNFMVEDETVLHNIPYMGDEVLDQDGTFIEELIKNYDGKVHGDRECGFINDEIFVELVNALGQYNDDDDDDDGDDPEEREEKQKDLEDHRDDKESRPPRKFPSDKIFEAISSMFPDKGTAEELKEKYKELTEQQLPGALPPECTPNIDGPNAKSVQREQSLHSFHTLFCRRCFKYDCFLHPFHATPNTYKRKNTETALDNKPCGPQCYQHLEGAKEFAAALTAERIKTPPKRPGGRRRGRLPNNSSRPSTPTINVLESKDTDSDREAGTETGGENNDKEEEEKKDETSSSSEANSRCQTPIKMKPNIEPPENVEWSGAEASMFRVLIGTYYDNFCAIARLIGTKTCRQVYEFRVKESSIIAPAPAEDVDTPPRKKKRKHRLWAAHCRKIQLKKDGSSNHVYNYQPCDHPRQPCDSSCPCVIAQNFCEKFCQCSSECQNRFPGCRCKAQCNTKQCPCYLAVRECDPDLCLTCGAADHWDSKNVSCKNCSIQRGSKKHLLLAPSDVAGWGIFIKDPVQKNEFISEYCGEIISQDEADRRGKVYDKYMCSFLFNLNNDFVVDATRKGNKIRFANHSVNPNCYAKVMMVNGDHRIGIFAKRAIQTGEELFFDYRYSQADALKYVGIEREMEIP
quantityKind: IC50 (nM)
Lab book: enter the figure in nM, no units written.

Summary line: CSc1cc(C)[nH]c(=O)c1CNC(=O)c1cc(Cl)c2c(c1C)OC(C)(C1CCN(S(C)(=O)=O)CC1)O2 (stereo unspecified) , Histone-lysine N-methyltransferase EZH2 (Homo sapiens), reported IC50 = 0.48

Each recorded value in this set is attributed to BindingDB's records for patent US20230365541.
